Please go through the items and note down their Plant response rating, Soybean.
Tested on: soybean
experiment: Test C postemergence
Type: in vivo, Glycine max
experimentalParameters: 125 g ai/ha, postemergence, 10 days; 0 to 100 scale, 0 no effect, 100 complete control
Answer with a bare number; do not write a unit.

Plant response rating, Soybean on soybean for CSCc1ncn(-c2ccc(C)c(C(=O)N3C[C@H](C)Oc4c(Cl)cccc43)c2)n1 is 100

Plant response rating, Soybean on soybean for Cc1ccc(-n2cnc(C3(O)CCCC3)n2)cc1C(=O)N1C[C@H](C)Oc2c(Cl)cccc21 is 100

Plant response rating, Soybean on soybean for COc1ccc(-n2cnc(C(C)C)n2)cc1C(=O)N1C[C@H](C)Oc2c1cccc2C(F)(F)F is 100

Plant response rating, Soybean on soybean for Cc1cccc2c1O[C@@H](C)CN2C(=O)c1cccc(-n2cnc(N(C)S(C)(=O)=O)n2)c1 is 60

Plant response rating, Soybean on soybean for CC(C)c1ncn(-c2cc3c(c(C(=O)N4C[C@H](C)Oc5c(Cl)cccc54)c2)OCCCO3)n1 is 100

Plant response rating, Soybean on soybean for CC(C)c1ncn(-c2cc(OC(F)F)c(OC(F)F)c(C(=O)N3C[C@H](C)Oc4c(Cl)cccc43)c2)n1 is 20

Plant response rating, Soybean on soybean for CC(C)c1ncn(-c2ccc(S(=O)(=O)C(F)(F)F)c(C(=O)N3C[C@H](C)Oc4c(Cl)cccc43)c2)n1 is 40

Plant response rating, Soybean on soybean for CCc1ncn(-c2ccc(OC)c(C(=S)N3C[C@H](C)Oc4c(C)cccc43)c2)n1 is 100

Plant response rating, Soybean on soybean for COc1ccc(-n2cnc(C(C)(C)O)n2)cc1C(=O)N1C[C@H](C)Oc2c(Cl)cccc21 is 100

Plant response rating, Soybean on soybean for Cc1cc(-n2cnc(C(C)C)n2)cc(C(=O)N2C[C@H](C)Oc3c(Cl)cccc32)c1C is 100

Plant response rating, Soybean on soybean for COC[C@H]1CN(C(=O)c2cc(-n3cncn3)ccc2OC)c2cccc(Cl)c2O1 is 100

Plant response rating, Soybean on soybean for Cc1ccc(-n2cnc(C3(C)COC3)n2)cc1C(=O)N1C[C@H](C)Oc2c(Cl)cccc21 is 100

Plant response rating, Soybean on soybean for Cc1ccc(-n2cnc(C(C)C)n2)cc1C(=O)N1C[C@H](C)Oc2c(F)cccc21 is 100

Plant response rating, Soybean on soybean for Cc1cccc2c1OC(C)CN2C(=O)c1cccc(-n2ncnc2C2CC2)c1 (racemic) is 0

Plant response rating, Soybean on soybean for COC[C@H]1CN(C(=O)c2cc(-n3cnc(C(C)(C)C)n3)ccc2C)c2cccc(Cl)c2O1 is 100

====

Please go through the items and note down their Plant response rating, Kochia.
System: kochia
experiment: Test A postemergence
Format: in vivo, Bassia scoparia
experimentalParameters: 1000 g ai/ha, Postemergence; 0 to 100 scale

Plant response rating, Kochia on kochia for CC1CN(C(=O)c2ccnc(-n3cncn3)c2)c2ccccc2O1 (centres unmarked) is 30

Plant response rating, Kochia on kochia for Cc1cccc2c1OC(C)CN2C(=O)c1ccc(C#N)c(-n2cncn2)c1 (centres unmarked) is 10

Plant response rating, Kochia on kochia for CC1CN(C(=O)c2cccc(-n3cncn3)c2)c2ccc(F)cc2O1 (centres unmarked) is 10

Plant response rating, Kochia on kochia for C#Cc1cccc2c1OC(C)CN2C(=O)c1cccc(-n2cncn2)c1 (centres unmarked) is 10

Plant response rating, Kochia on kochia for C[C@H]1CN(C(=O)c2cccc(-n3cnnc3)c2)c2cccc(Cl)c2O1 is 0

Plant response rating, Kochia on kochia for Cc1noc(-c2cccc(C(=O)N3C[C@H](C)Oc4c(Cl)cccc43)c2)n1 is 70

Plant response rating, Kochia on kochia for Cc1cccc2c1OC(C)CN2C(=O)c1cccc(-n2cncn2)c1 (centres unmarked) is 40

Plant response rating, Kochia on kochia for Cc1cccc2c1O[C@@H](C)CN2C(=O)c1cccc(-n2cc(F)cn2)c1 is 40
